# study-target: PI3Kδ (p110δ/p85α) (Homo sapiens)
# Construct: purchased Invitrogen
# Sequence (O00329 whole entry): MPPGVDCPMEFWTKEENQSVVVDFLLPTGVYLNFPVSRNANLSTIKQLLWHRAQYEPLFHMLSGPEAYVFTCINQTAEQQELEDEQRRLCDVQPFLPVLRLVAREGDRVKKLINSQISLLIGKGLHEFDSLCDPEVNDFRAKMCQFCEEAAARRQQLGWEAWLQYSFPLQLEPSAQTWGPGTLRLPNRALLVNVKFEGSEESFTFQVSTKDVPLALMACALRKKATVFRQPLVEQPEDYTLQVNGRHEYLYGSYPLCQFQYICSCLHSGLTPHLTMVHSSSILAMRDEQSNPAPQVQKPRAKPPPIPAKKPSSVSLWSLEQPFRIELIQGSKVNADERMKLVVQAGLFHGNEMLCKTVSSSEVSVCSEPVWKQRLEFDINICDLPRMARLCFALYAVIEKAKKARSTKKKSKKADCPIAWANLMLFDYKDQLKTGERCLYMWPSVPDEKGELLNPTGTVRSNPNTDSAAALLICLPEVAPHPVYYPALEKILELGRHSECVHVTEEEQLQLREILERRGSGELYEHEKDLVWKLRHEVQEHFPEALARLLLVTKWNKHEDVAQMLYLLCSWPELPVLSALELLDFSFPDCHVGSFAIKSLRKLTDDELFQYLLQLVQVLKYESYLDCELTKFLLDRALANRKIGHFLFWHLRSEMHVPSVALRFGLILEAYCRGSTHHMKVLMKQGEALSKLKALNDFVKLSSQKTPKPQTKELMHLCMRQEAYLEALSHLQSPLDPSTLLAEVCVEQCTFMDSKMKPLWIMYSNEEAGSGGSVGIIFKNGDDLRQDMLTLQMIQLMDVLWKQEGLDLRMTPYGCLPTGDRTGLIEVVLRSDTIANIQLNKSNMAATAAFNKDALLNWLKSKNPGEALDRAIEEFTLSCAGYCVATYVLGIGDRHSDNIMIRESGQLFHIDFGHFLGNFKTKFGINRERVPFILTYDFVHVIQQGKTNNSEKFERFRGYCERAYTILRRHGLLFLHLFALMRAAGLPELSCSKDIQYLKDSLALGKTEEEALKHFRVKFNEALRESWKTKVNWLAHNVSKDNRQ
# Sequence (P27986 whole entry partner): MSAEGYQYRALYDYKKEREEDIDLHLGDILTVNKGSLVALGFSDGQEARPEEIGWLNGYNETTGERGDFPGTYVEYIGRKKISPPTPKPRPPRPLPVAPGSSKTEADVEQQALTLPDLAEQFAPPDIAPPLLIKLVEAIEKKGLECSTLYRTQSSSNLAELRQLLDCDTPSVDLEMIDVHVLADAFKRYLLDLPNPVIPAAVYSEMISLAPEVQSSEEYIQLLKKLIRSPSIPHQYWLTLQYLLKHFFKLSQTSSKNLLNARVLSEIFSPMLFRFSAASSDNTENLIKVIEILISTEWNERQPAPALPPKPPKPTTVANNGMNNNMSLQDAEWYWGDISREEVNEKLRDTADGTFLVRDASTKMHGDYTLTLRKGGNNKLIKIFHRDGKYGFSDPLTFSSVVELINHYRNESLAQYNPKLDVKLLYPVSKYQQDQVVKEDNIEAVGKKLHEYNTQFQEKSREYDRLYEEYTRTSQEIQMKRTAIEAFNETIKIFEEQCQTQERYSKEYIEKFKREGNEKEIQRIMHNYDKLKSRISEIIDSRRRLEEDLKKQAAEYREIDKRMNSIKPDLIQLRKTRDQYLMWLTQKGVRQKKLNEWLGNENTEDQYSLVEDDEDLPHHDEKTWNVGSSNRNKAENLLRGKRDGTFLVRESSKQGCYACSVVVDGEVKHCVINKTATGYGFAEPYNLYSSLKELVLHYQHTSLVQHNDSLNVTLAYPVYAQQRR
# procedure-text: PI3K biochemical enzyme assay (Adapta universal kinase assay), p110 delta/p85 alpha
# condition-description: 0.1 μM; read-out: PI3Kδ % inhib
# Protocol: This example describes a method of obtaining in vitro activity data concerning the effect of compounds of on various PI3K isoforms. The effect of compounds on the kinase activity of Class I PI3Ks was measured at Invitrogen by using the Adapta® universal kinase assay. It was a homogenous, fluorescent based immunoassay for the detection of ADP produced by the kinase reaction. […] ADP formation was determined by calculating the emission ratio from the assay well. […]
observable: inhibition at 0.1 µM (%)

>>> observed("Cc1cccc(-c2nc3ccccc3nc2C(C)Nc2ncnc3[nH]cnc23)c1 (stereo not shown) [Compound Q3]")
48
>>> observed("CCC(Nc1ncnc2[nH]cnc12)c1nc2cccc(F)c2nc1-c1ccccc1 (stereo not shown) [Compound Q9]")
72

A. Cc1cccc2nc(C(C)Nc3nc(N)nc4[nH]cnc34)c(-c3ccccc3)nc12 (stereo not shown) [Compound Q4]
B. CC(Nc1ncnc2[nH]cnc12)c1nc2ccccc2nc1-c1cc(F)cc(F)c1 (stereo not shown) [Compound Q2]
(Q) // max by inhibition at 0.1 µM over [ A , B ] Write down the label attached to your selection.
(A) A
